- Assay Text: Pharmacokinetic experiment in mice
- Assay type: in vivo
- Conditions Used: male, mouse; ICR mice, single oral administration (PO), 10 mg/kg, plasma
Measurement Type: half-life (min)

For orientation, consider the following solved cases.
* COC(=O)N[C@@H]1CCN(c2nn3c4cc(ncc24)Nc2ccnc(n2)-c2cnn(C)c2OCC2(CCCC2)C3)C1 | 168
* Cn1ncc2c1OCC1(CCCCC1)Cn1nc(N3CC[C@H](CS(=O)(=O)C4CC4)C3)c3cnc(cc31)Nc1ccnc-2n1 | 138
* CCS(=O)(=O)C[C@H]1CCN(c2nn3c4cc(ncc24)Nc2ccnc(n2)-c2cnn(C)c2OCC2(CCCC2)C3)C1 | 156
* Cn1ncc2c1OCC1(CCCC1)Cn1nc(N3CC[C@H](CS(=O)(=O)C4CC4)C3)c3cnc(cc31)Nc1ccnc-2n1 | 210
* CC(C)S(=O)(=O)C[C@H]1CCN(c2nn3c4cc(ncc24)Nc2ccnc(n2)-c2cnn(C)c2OCC2(CCCC2)C3)C1 | 180
* Cn1ncc2c1OCC1(CCCC1)Cn1nc(N3CC[C@H](CS(=O)(=O)C(F)(F)F)C3)c3cnc(cc31)Nc1ccnc-2n1 | 144

[1] CCS(=O)(=O)C[C@H]1CCN(c2nn3c4cc(ncc24)Nc2ccnc(n2)-c2cnn(C)c2OCC2(CCCCC2)C3)C1
[2] CCS(=O)(=O)C[C@@H]1CCN(c2nn3c4cc(ncc24)Nc2ccnc(n2)-c2cnn(C)c2OCC2(CCCC2)C3)C1
[3] Cn1ncc2c1OCC1(CCCC1)Cn1nc(N3CC[C@H](NC(=O)C4CC4)C3)c3cnc(cc31)Nc1ccnc-2n1
Q) Put the compounds in ascending order of half-life. Please respond by ranking the labels in the order requested.
A) 2, 3, 1
